# Tested on: HUVEC
# ASSAY PROTOCOL: Cytotoxicity against HUVEC assessed as inhibition of cell proliferation after 72 hrs by MTS assay
# Format: cell-based
# REPORTED CONDITIONS: Homo sapiens
REPORTED METRIC: IC50
Write your answer as a measured quantity: the number, then the unit.

Item under review: `COc1ccc(-c2nnc3n(C)c(=O)c4ccccc4n23)cc1O` . Reported IC50?
2.48 µM

----------
Here, each record is paired with measured IC50 data.
# SYSTEM TESTED: Tubulin (Bos taurus, UniProt Q6B856+Q862L2+Q862F3)
# ASSAY PROTOCOL: Inhibition of bovine tubulin polymerization after 1 hr by fluorescence spectrometry
# Format: protein assay

Consider the reported IC50 for these molecules:
| CHEM SMILES | SYSTEM TESTED | IC50 |
| --- | --- | --- |
| COc1ccc(-c2nnc3[nH]c(=O)c4ccccc4n23)cc1OC | Tubulin (Bos taurus, UniProt Q6B856+Q862L2+Q862F3) | > 10 µM |
| COc1cc(-c2nnc3[nH]c(=O)c4ccccc4n23)ccc1O | Tubulin (Bos taurus, UniProt Q6B856+Q862L2+Q862F3) | > 10 µM |
| COc1cc(-c2nnc3n(C)c(=O)c4ccccc4n23)ccc1O | Tubulin (Bos taurus, UniProt Q6B856+Q862L2+Q862F3) | > 10 µM |
| COc1ccc(-c2nnc3n(C)c(=O)c4ccccc4n23)cc1OC | Tubulin (Bos taurus, UniProt Q6B856+Q862L2+Q862F3) | > 10 µM |

# query: IC50 of entry `COc1ccc(-c2nnc3n(C)c(=O)c4ccccc4n23)cc1O`
0.15 µM

Could you share which IC50 value was measured for `COc1cc(-c2nnc3[nH]c(=O)c4ccccc4n23)cc(OC)c1OC` ?
> 10 µM

// lookup IC50 for `Cn1c(=O)c2ccccc2n2c(-c3ccc(O)c(O)c3)nnc12`
> 10 µM

Dear colleague, I am looking for the recorded IC50 of the following molecule: `COc1ccc(-c2nnc3[nH]c(=O)c4ccccc4n23)cc1`
> 10 µM

Entry under review: `COc1ccc(-c2nnc3n(C)c(=O)c4ccccc4n23)cc1N` . Reported IC50?
> 10 µM

IC50 for `COc1cc(-c2nnc3n(C)c(=O)c4ccccc4n23)cc(OC)c1OC` ?
> 10 µM

Which IC50 is listed for `COc1ccc(-c2nnc3[nH]c(=O)c4ccccc4n23)cc1O` ?
4.26 µM

Which IC50 is reported for this molecule? `COc1ccc(-c2nnc3n(C)c(=O)c4ccccc4n23)cc1`
> 10 µM
